Assay: Kinetic parameter(rate of catalysis) was evaluated
Assay type: ADME
Exercise: state measured k cat for each of the compounds provided.
Give the value in s⁻¹ but do not write s⁻¹ after it.

Query: k cat; subject: O=C(O)CC[C@H](NC(=O)Oc1ccc(COC(=O)Nc2ccc(N(CCF)CCF)cc2)cc1)C(=O)O
50

So what's the measured k cat for this one? O=C(O)CC[C@H](NC(=O)Nc1ccc(COC(=O)Nc2ccc(N(CCF)CCF)cc2)cc1)C(=O)O
50

If you can, please state the reported k cat value of O=C(O)CC[C@H](NC(=O)Oc1ccc(CO)cc1)C(=O)O .
140

Need k cat of O=C(O)CC[C@H](NC(=O)Nc1ccc(COC(=O)Nc2ccc(N(CCCl)CCCl)cc2)cc1)C(=O)O , thanks.
50

// k cat lookup, key: O=C(O)CC[C@H](NC(=O)Nc1ccc(CO)cc1)C(=O)O
65.4

###

Experiment: Kinetic parameter (half-life prodrug/drug) was evaluated
Format: ADME
attribute_measured: T1/2 (min)
Provide only the numeric value, understood in min.

Report T1/2 for O=C(O)CC[C@H](NC(=O)Nc1ccc(COC(=O)Oc2ccc(N(CCCl)CCCl)cc2)cc1)C(=O)O please.
0.3

Given the compound O=C(O)CC[C@H](NC(=O)Oc1ccc(COC(=O)Nc2ccc(N(CCCl)CCCl)cc2)cc1)C(=O)O , what is its reported T1/2?
8.1

What does the data say about its T1/2? Entry: O=C(O)CC[C@H](NC(=O)Oc1ccc(COC(=O)Oc2ccc(N(CCCl)CCCl)cc2)cc1)C(=O)O
13.7

Given the compound O=C(O)CC[C@H](NC(=O)Nc1ccc(COC(=O)Nc2ccc(N(CCF)CCF)cc2)cc1)C(=O)O , what is its reported T1/2?
0.4

Name the reported T1/2 value associated with the compound O=C(O)CC[C@H](NC(=O)Nc1ccc(COC(=O)Nc2ccc(N(CCCl)CCCl)cc2)cc1)C(=O)O
7.6

###

Test: Cytotoxicity was evaluated against LS174T-stCPG2(Q)3-expressing cell clone
Format: functional
Conditions: Homo sapiens
attribute_measured: IC50

Requested read-out: IC50. Entry: O=C(O)CC[C@H](NC(=O)Nc1ccc(COC(=O)Oc2ccc(N(CCCl)CCCl)cc2)cc1)C(=O)O
0.48 µM

Value lookup for IC50; key = O=C(O)CC[C@H](NC(=O)Oc1ccc(COC(=O)Nc2ccc(N(CCF)CCF)cc2)cc1)C(=O)O
257 µM

Would you mind telling me what IC50 value was observed for CS(=O)(=O)OCCN(CCCl)c1ccc(C(=O)O)cc1 ?
27.8 µM

I'd like to know its IC50. The compound in question is O=C(O)CC[C@H](NC(=O)Oc1ccc(COC(=O)Oc2ccc(N(CCF)CCF)cc2)cc1)C(=O)O
128 µM

// query IC50 value for entry O=C(O)CC[C@H](NC(=O)Oc1ccc(COC(=O)Oc2ccc(N(CCCl)CCCl)cc2)cc1)C(=O)O
0.42 µM

Which IC50 is reported for this compound? O=C(O)CC[C@H](NC(=O)Nc1ccc(COC(=O)Nc2ccc(N(CCF)CCF)cc2)cc1)C(=O)O
184 µM

###

Assay: Cytotoxicity was evaluated against LS174T-stCPG2(Q)3-expressing cell clone
Format: functional
Conditions: Homo sapiens
Kindly supply the reported log10 of IC50 values for the records listed here.
Please be aware that the numbers have been log10-transformed from IC50 in µM.

Please look up its log10 of IC50: O=C(O)CC[C@H](NC(=O)Oc1ccc(COC(=O)Nc2ccc(N(CCCl)CCCl)cc2)cc1)C(=O)O
-0.21

# lookup: log10 of IC50 of Oc1ccc(N(CCF)CCF)cc1
2.51

Fill in: log10 of IC50 of O=C(O)CC[C@H](NC(=O)Nc1ccc(COC(=O)Nc2ccc(N(CCCl)CCCl)cc2)cc1)C(=O)O is ___
-0.34

Which log10 of IC50 value is on record for O=C(O)CC[C@H](NC(=O)Nc1ccc(COC(=O)Oc2ccc(N(CCF)CCF)cc2)cc1)C(=O)O ?
2.42

Please look up its log10 of IC50: Nc1ccc(N(CCF)CCF)cc1
2.08

Origin of measurements: ChEMBL document CHEMBL1131298
